target: Urokinase-type plasminogen activator (Homo sapiens, UniProt P00749)
pKi: −log10 of the molar value.
Use condition met when the recorded pKi is no lower than 7; use condition not met when it is lower.

Example entries and their recorded answers appear below.
Q: Has Cc1cc(-c2ccccc2)c(O)c(-c2cc3cc(C(=N)N)ccc3[nH]2)c1 a recorded pKi greater than or equal to 7?
Ans: condition not met

Q: Has COc1cc(-c2ccccc2)c(O)c(-c2cc3cc(C(=N)N)ccc3[nH]2)c1 a recorded pKi greater than or equal to 7?
Ans: condition met

Q: Has N=C(N)c1ccc2nc(-c3cc(F)ccc3O)[nH]c2c1 a recorded pKi greater than or equal to 7?
Ans: condition not met

More entries:
Q: Has N=C(N)c1ccc2[nH]c(-c3ccccc3O)cc2c1 a recorded pKi greater than or equal to 7?
Ans: condition not met

Q: Has N=C(N)c1cc2cc(-c3cc(Cl)cc(Cl)c3O)[nH]c2cc1Cl a recorded pKi greater than or equal to 7?
Ans: condition not met

Q: Has N=C(N)c1ccc2nc(-c3ncccc3O)[nH]c2c1 a recorded pKi greater than or equal to 7?
Ans: condition not met

Q: Has CN(C)C(=O)c1cc(-c2ccccc2)c(O)c(-c2cc3cc(C(=N)N)c(Cl)cc3[nH]2)c1 a recorded pKi greater than or equal to 7?
Ans: condition met

====

Consider molecules characterized by their pKi with Urokinase-type plasminogen activator (Homo sapiens).
API: returns pKi as number; meaning -log10 of concentration in mol/L.

Q: Using Urokinase-type plasminogen activator (Homo sapiens) as the test system, report measured pKi of N=C(N)c1ccc2[nH]c(-c3cccc(-c4ccccc4)c3O)cc2c1 [CRA-8696] .
Ans: 7.14

Q: Using Urokinase-type plasminogen activator (Homo sapiens) as the test system, report measured pKi of N=C(N)c1ccc2nc(-c3cc([C@@H](CC(=O)O)C(=O)O)cc(Br)c3O)[nH]c2c1 .
Ans: 6.12

More entries:
Q: Using Urokinase-type plasminogen activator (Homo sapiens) as the test system, report measured pKi of CN(C)C(=O)c1cc(-c2ccccc2)c(O)c(-c2cc3cc(C(=N)N)ccc3[nH]2)c1 .
Ans: 8.49

====

target: Urokinase-type plasminogen activator (Homo sapiens, UniProt P00749)
assayEndpoint: Ki (nM)
// return numeric value only (unit: nM, not printed)

Q: Look up and state reported Ki for N=C(N)c1cc2cc(-c3cccc(OC4CCCC4)c3O)[nH]c2cc1Cl
Ans: 160

Q: Look up and state reported Ki for N=C(N)c1ccc2nc(-c3cc([C@@H](CC(=O)O)C(=O)O)cc(-c4ccccc4)c3O)[nH]c2c1
Ans: 120

More entries:
Q: Look up and state reported Ki for N=C(N)c1ccc2nc(-c3cc([C@@H](CC(=O)O)C(=O)O)cc(-c4ccccc4F)c3O)[nH]c2c1
Ans: 85

The origin of these recorded values is BindingDB's records for doi:10.1016/s0022-2836(03)00399-1.
